What melting point was measured for each of the following?

[[record]]
compound = "O=C=Nc1cc(F)cc2c1OCOC2"
result = "85 to 86 °C"

[[record]]
compound = "CCOC(=O)c1c(C)oc(NC(=O)Nc2ccc(F)cc2)c1C(=O)OCC"
result = "146 to 148 °C"


Count: 2. Required value per item: melting point.
1. Cc1cc(C)c(CC(=O)c2oc3ccccc3c2N)c(C)c1
2. Cc1ccc(C)c(C(O)C(=O)O)c1 (centres undefined)

## Output
1: 188 to 189 °C; 2: 115 to 118 °C

====

quantity measured: melting point

Solved cases below.
[[record]]
compound = "CC12CCC(O)C(C)(C)C1C(=O)C(=O)c1c(O)c(C(CO)CO)c(O)c(O)c12 (stereo not drawn)"
quantity_measured = "melting point"
result = "238 to 240 °C"

[[record]]
compound = "Nc1ccc2nsnc2c1"
quantity_measured = "melting point"
result = "112 to 114 °C"

[[record]]
compound = "O=[N+]([O-])c1cc[nH]n1"
quantity_measured = "melting point"
result = "173 to 175 °C"

[[record]]
compound = "O=C(O)c1cccc(-c2nccs2)c1"
quantity_measured = "melting point"
result = "160 to 162 °C"

[[record]]
compound = "CCOC(=O)c1csc(Cn2cnc(Cl)c2Cl)n1"
quantity_measured = "melting point"
result = "126 to 129 °C"

[[record]]
compound = "Clc1cccc(Cl)c1I"
quantity_measured = "melting point"
result = "64 to 67 °C"


Count: 4. Required value per item: melting point.
1. O=C(NC(Cc1ccccc1)C(=O)O)OCc1ccccc1[N+](=O)[O-] (stereo not drawn)
2. Nc1snnc1-c1ccccc1
3. Cc1ccccc1NC(N)=O
4. FC(F)(F)c1ccc(-n2cc[nH]c2=S)cc1

## Output
["140 to 142 °C", "144 to 147 °C", "190 to 195 °C", "194 to 196 °C"]

Count: 3. Required value per item: melting point.
1. O=C1OC(=O)c2cc3ccccc3cc21
2. Oc1cc(O)cc(Cl)c1
3. O=C(c1ccc([N+](=O)[O-])cc1)c1noc(-c2ccc(Br)cc2)c1S(=O)(=O)c1ccccc1

## Output
249 °C
118 °C
178 °C
